Would you mind telling me the reported %-inhibition of RET(Y791F) of each entry?
# Measured on: panel of more than 300 wild-type and mutant kinases (313 kinase panel) (Homo sapiens, UniProt P07949, Y791F)
# Sequence (P07949 29-1114 Y791F): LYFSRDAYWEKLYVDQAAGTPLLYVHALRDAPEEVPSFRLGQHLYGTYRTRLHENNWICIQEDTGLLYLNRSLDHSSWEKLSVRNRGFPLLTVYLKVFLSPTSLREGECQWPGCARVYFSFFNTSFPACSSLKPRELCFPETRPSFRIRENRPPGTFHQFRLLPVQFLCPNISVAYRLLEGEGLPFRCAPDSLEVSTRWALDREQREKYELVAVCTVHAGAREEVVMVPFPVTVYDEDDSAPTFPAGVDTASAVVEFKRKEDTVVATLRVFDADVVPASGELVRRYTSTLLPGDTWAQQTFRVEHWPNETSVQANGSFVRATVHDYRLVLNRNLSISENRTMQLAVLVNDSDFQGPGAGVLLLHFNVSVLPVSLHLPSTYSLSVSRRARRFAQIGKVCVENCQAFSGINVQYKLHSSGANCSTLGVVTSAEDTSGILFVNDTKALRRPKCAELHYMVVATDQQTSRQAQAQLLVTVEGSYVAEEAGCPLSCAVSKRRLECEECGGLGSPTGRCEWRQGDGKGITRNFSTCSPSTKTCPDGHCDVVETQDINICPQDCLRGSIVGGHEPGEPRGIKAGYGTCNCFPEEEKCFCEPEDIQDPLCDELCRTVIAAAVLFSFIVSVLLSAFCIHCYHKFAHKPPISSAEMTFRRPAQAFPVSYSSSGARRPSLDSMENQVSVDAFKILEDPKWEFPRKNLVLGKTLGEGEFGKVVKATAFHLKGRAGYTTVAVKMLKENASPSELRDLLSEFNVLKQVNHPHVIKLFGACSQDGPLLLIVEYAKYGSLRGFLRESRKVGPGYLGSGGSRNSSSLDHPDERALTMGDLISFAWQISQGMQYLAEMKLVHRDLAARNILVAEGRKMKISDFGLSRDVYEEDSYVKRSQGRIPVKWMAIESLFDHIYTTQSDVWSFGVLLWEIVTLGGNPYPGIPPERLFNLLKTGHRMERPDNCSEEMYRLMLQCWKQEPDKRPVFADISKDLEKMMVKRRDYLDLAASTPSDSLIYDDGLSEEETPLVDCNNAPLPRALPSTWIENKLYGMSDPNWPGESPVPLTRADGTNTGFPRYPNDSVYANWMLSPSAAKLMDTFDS
# Protocol description: Kinase profiling in a biochemical assay panel (mobility shift assays and ELISA), %-inhibition at 1 μM; selectivity entropy
# Experimental parameters: kinase RET(Y791F); 1 μM
Answers are plain numbers, in %.

Examples with answers:
{"columns": ["Item smiles", "%-inhibition of RET(Y791F) [%]"],
 "data": [
  ["Cc1ccc(Nc2nccc(N(C)c3ccc4c(C)n(C)nc4c3)n2)cc1S(N)(=O)=O", 94],
  ["Cc1ccc(C(=O)Nc2ccc(CN3CCN(C)CC3)c(C(F)(F)F)c2)cc1C#Cc1cnc2cccnn12", 102],
  ["CC(=O)Nc1cccc(-n2c(=O)n(C3CC3)c(=O)c3c(Nc4ccc(I)cc4F)n(C)c(=O)c(C)c32)c1", -1.71]
]}

For every record below, what is its %-inhibition of RET(Y791F)?
1. CC(C)(C)c1nc(-c2cccc(NS(=O)(=O)c3c(F)cccc3F)c2F)c(-c2ccnc(N)n2)s1
2. CO[C@H]1C[C@@H]2CC[C@@H](C)[C@@](O)(O2)C(=O)C(=O)N2CCCC[C@H]2C(=O)O[C@H]([C@H](C)C[C@@H]2CC[C@@H](OCCO)[C@H](OC)C2)CC(=O)[C@H](C)/C=C(\C)[C@@H](O)[C@@H](OC)C(=O)[C@H](C)C[C@H](C)/C=C/C=C/C=C/1C
3. CO[C@H]1C[C@@H]2CC[C@@H](C)[C@@](O)(O2)C(=O)C(=O)N2CCCC[C@H]2C(=O)O[C@H]([C@H](C)C[C@@H]2CC[C@@H](OC(=O)C(C)(CO)CO)[C@H](OC)C2)CC(=O)[C@H](C)/C=C(\C)[C@@H](O)[C@@H](OC)C(=O)[C@H](C)C[C@H](C)/C=C/C=C/C=C/1C

36
-3.57
-0.679

---

# Measured on: panel of more than 300 wild-type and mutant kinases (313 kinase panel) (Homo sapiens)
# Protocol description: Kinase profiling in a biochemical assay panel (mobility shift assays and ELISA), %-inhibition at 1 μM; selectivity entropy
# Experimental parameters: kinase NEK4; 1 μM
Would you mind telling me the reported %-inhibition of NEK4 of each entry?
One number for each entry, in %.

{"columns": ["Item smiles", "Metric name", "Test value"],
 "data": [
  ["COc1cc(Nc2c(C#N)cnc3cc(OCCCN4CCN(C)CC4)c(OC)cc23)c(Cl)cc1Cl", "%-inhibition of NEK4", 84],
  ["C[C@@H](Oc1cc(-c2cnn(C3CCNCC3)c2)cnc1N)c1c(Cl)ccc(F)c1Cl", "%-inhibition of NEK4", 4.57],
  ["Cc1ccc(C(=O)Nc2ccc(CN3CCN(C)CC3)c(C(F)(F)F)c2)cc1C#Cc1cnc2cccnn12", "%-inhibition of NEK4", 98]
]}

Input O=S(=O)(c1cccc2cnccc12)N1CCCNCC1 , output reported %-inhibition of NEK4.
-1.87

---

# Measured on: panel of more than 300 wild-type and mutant kinases (313 kinase panel) (Homo sapiens, UniProt Q86Z02)
# Protocol description: Kinase profiling in a biochemical assay panel (mobility shift assays and ELISA), %-inhibition at 1 μM; selectivity entropy
# Experimental parameters: kinase HIPK1; compound at 1 μM
Would you mind telling me the reported %-inhibition of HIPK1 of each entry?
Numbers only, in %.

Examples with answers:
{"columns": ["Molecule", "Unit tag", "%-inhibition of HIPK1"],
 "data": [
  ["COc1cc2nccc(Oc3ccc(NC(=O)C4(C(=O)Nc5ccc(F)cc5)CC4)cc3)c2cc1OC [cabozantinib]", "%", 31],
  ["COc1cc(Nc2c(C#N)cnc3cc(OCCCN4CCN(C)CC4)c(OC)cc23)c(Cl)cc1Cl", "%", 3.32]
]}

For every record below, what is its %-inhibition of HIPK1?
1. CCN(CC)CCNC(=O)c1c(C)[nH]c(/C=C2\C(=O)Nc3ccc(F)cc32)c1C
2. CC(=O)Nc1cccc(-n2c(=O)n(C3CC3)c(=O)c3c(Nc4ccc(I)cc4F)n(C)c(=O)c(C)c32)c1
3. Cc1cn(-c2cc(NC(=O)c3ccc(C)c(Nc4nccc(-c5cccnc5)n4)c3)cc(C(F)(F)F)c2)cn1
4. O=S(=O)(c1cccc2cnccc12)N1CCCNCC1
5. CO[C@H]1C[C@@H]2CC[C@@H](C)[C@@](O)(O2)C(=O)C(=O)N2CCCC[C@H]2C(=O)O[C@H]([C@H](C)C[C@@H]2CC[C@@H](OC(=O)C(C)(CO)CO)[C@H](OC)C2)CC(=O)[C@H](C)/C=C(\C)[C@@H](O)[C@@H](OC)C(=O)[C@H](C)C[C@H](C)/C=C/C=C/C=C/1C
6. Cc1ccc(C(=O)Nc2ccc(CN3CCN(C)CC3)c(C(F)(F)F)c2)cc1C#Cc1cnc2cccnn12
7. CCCS(=O)(=O)Nc1ccc(F)c(C(=O)c2c[nH]c3ncc(-c4ccc(Cl)cc4)cc23)c1F

79
-3.71
14
-3.31
-0.101
22
-4.72
